- Tested target: recombinant human mPGES-1 (Homo sapiens (Human), UniProt O14684)
- Sequence (O14684 whole entry): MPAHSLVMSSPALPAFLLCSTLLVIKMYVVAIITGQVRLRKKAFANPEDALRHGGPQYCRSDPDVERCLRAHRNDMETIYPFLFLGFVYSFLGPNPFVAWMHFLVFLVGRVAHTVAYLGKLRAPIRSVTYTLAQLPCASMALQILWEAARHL
- Test description: mPGES-1 enzyme assay (HTRF detection of PGE2)
- Assay type: biochemical
- Test parameters: recombinant human mPGES-1 microsomes, PGH2 2 μM, 60 seconds; read-out: mPGES-1 inhibitory effect IC50 in the enzyme assay
Measured quantity: IC50 (nM)

Sample records with IC50:
- CN(CC(F)F)c1cc2c(cc1C(=O)Nc1ccc(F)c(Cl)c1)nc(Nc1c(Cl)ccc(CNC(=O)C(C)(C)C)c1Cl)n2C: 2
- CC(C)(C)C(=O)NCc1ccc(Cl)c(Nc2nc3cc(C(=O)N[C@H]4CC[C@H](C(F)(F)F)CC4)c(N4CC[C@@H](F)C4)cc3n2CC(F)F)c1Cl: 3
- Cn1c(Nc2c(Cl)ccc(CNC(=O)[C@](C)(O)C(F)(F)F)c2Cl)nc2cc(C(=O)NC3CC(F)(F)C3)c(N3CCC(C(F)(F)F)CC3)cc21: 4.1
- Cn1c(Nc2c(Cl)ccc(CNC(=O)C(C)(C)C)c2Cl)nc2cc(C(=O)Nc3cc(C(C)(C)CO)no3)c(N3CCC(C(F)(F)F)CC3)cc21: 4
- Cc1nc2c(s1)CN(c1cc3c(cc1C(=O)NCC(F)(F)F)nc(Nc1c(Cl)ccc(CNC(=O)C(C)(C)C)c1Cl)n3C)C2: 3
- CC(C)(F)C(=O)NCc1ccc(Cl)c(Nc2nc3cc(C(=O)N[C@H]4CC[C@H](C(F)(F)F)CC4)c(N4CCC(O)(C(F)(F)F)CC4)cc3n2CC(F)F)c1Cl: 2

[a] CN(c1cc2c(cc1C(=O)N[C@H]1CC[C@H](C(F)(F)F)CC1)nc(Nc1c(Cl)ccc(CNC(=O)C(C)(C)C)c1Cl)n2C)C1CCC1
[b] Cn1c(Nc2c(Cl)ccc(CNC(=O)C(C)(C)F)c2Cl)nc2cc(C(=O)Nc3cccc(C(F)(F)F)n3)c(N3CCC(C(F)(F)F)CC3)cc21
[c] Cn1c(Nc2c(Cl)ccc(CNC(=O)C(C)(C)C)c2Cl)nc2cc(C(=O)Nc3ccc(OC(F)(F)F)cc3)c(N3CCC(C(F)(F)F)CC3)cc21
Arrange these 3 compounds in increasing order of IC50. Give the order by naming the labels one after another as requested.
c, b, a
(c: 1 nM, b: 1.7 nM, a: 4 nM)

###

- Tested target: recombinant human mPGES-1 (Homo sapiens (Human), UniProt O14684)
- Test description: mPGES-1 enzyme assay (HTRF detection of PGE2)
- Assay type: biochemical
- Test parameters: recombinant human mPGES-1 microsomes, PGH2 2 μM, 60 seconds; read-out: mPGES-1 inhibitory effect IC50 in the enzyme assay
- Procedure: Microsomes from Rosetta E. coli bacteria expressing recombinant human mPGES-1 can be derived as described below: Inoculate 5 ml LB with Ampicilin (50 μg/ml) and Chloramphenicol (34 μg/ml) with bacteria from freeze culture. […] The fluorescence of Europium cryptate (maxex=307 nm, maxem=620 nm) and d2-PGE2 (maxex=620 nm, maxem=665 nm) are measured. The extent of the specific HTRF is measured as a ratio of the emission intensity at 665 nm vs. that at 620 nm at an excitation puts of 320 nm. […]
Measured quantity: IC50 (nM)

Sample records with IC50:
- Cn1c(Nc2c(Cl)ccc(CNC(=O)C(C)(C)C)c2Cl)nc2cc(C(=O)N[C@H]3CC[C@H](C(F)(F)F)CC3)c(N3CC[C@H](F)C3)cc21 [Example 18]: 3
- Cn1c(Nc2c(Cl)ccc(CNC(=O)[C@](C)(O)C(F)(F)F)c2Cl)nc2cc(C(=O)Nc3ccc(F)c(Cl)c3)c(N3CC[C@@H](F)C3)cc21 [Example 248]: 6.7
- CC(C)(C)C(=O)NCc1ccc(Cl)c(Nc2nc3cc(C(=O)N[C@H]4CC[C@H](C(F)(F)F)CC4)c(N4CC5CC5C4)cc3n2C2(C(C)(C)O)CC2)c1Cl (stereo partly drawn) [Example 164]: 4
- Cn1c(Nc2c(Cl)ccc(CNC(=O)C(C)(C)C(F)(F)F)c2Cl)nc2cc(C(=O)NCCC(F)(F)F)c(N3CCC(C(F)(F)F)CC3)cc21 [Example 261]: 2.9

[P] Cn1c(Nc2c(Cl)ccc(CNC(=O)C3(C)CC3)c2Cl)nc2cc(C(=O)Nc3ccc(OC(F)(F)F)cc3)c(N3CC[C@@H](F)C3)cc21 [Example 156]
[Q] Cn1c(Nc2c(Cl)ccc(CNC(=O)C(C)(C)F)c2Cl)nc2cc(C(=O)NCCC(F)(F)F)c(N3CCC(O)CC3)cc21 [Example 148]
Which one would you say has the larger IC50 value: P , or Q ? Please reply using the label of the selected record.
Q

[A] Cn1c(Nc2c(Cl)ccc(CNC(=O)C(C)(C)C)c2Cl)nc2cc(C(=O)N[C@H]3CC[C@H](C(F)(F)F)CC3)c(NCCCO)cc21 [Example 85]
[B] Cn1c(Nc2c(Cl)ccc(CNC(=O)[C@](C)(O)C(F)(F)F)c2Cl)nc2cc(C(=O)Nc3ccc(F)c(Cl)c3)c(N3CCC(C(F)(F)F)CC3)cc21 [Example 234]
Looking at A and B , which one comes out lower in IC50 terms? Please reply using the label of the selected record.
B
(B: 3.1 nM, A: 15 nM)

[a] Cn1c(Nc2c(Cl)ccc(CNC(=O)C(C)(C)C)c2Cl)nc2cc(C(=O)N[C@H]3CC[C@H](C(F)(F)F)CC3)c(N3CC(O)C3)cc21 [Example 87]
[b] Cn1c(Nc2c(Cl)ccc(CNC(=O)C(C)(C)C)c2Cl)nc2cc(C(=O)NCCCC(F)(F)F)c(N3CCC(F)(F)C3)cc21 [Example 46]
[c] Cn1c(Nc2c(Cl)ccc(CNC(=O)C(C)(C)F)c2Cl)nc2cc(C(=O)N[C@H]3CC[C@@H](C(F)(F)F)CC3)c(N3CCC(C(F)(F)F)CC3)cc21 [Example 253]
Place the items in sequence of falling IC50. Give the order by naming the labels one after another as requested.
c, b, a
